- procedure.summary: MTT relative viability, PhTERT-SEAP (hTERT-BJ1) cells
- experimental.conditions: human, hTERT-BJ1 cells, stable PhTERT-SEAP reporter clone
measurement.kind: viability at 48 h, 23 µM (%)
Field: numeric (%). Do not append units.

compound="CC(Cl)C(=O)Nc1ccc(NC(=O)C(C)Cl)c2c1C(=O)c1ccccc1C2=O (centres unmarked)" measurement_kind="viability at 48 h, 23 µM" unit_descriptor=% experimental_result=68

Now for the compound whose viability at 48 h, 23 µM we want.
q: I have this compound here, `O=C(CCCl)Nc1ccc(NC(=O)CCCl)c2c1C(=O)c1ccccc1C2=O` , and I need its recorded viability at 48 h, 23 µM.
a: 82

* * *

- procedure.summary: MTT relative viability, PhTERT-SEAP (hTERT-BJ1) cells
- experimental.conditions: human, hTERT-BJ1 cells, stable PhTERT-SEAP reporter clone
measurement.kind: viability at 48 h, 20 µM
In your response, put the unit directly after the numeric value.

Below, each entry is followed by its recorded viability at 48 h, 20 µM result.
compound="CCN(CC)C(C)C(=O)Nc1ccc(NC(=O)C(C)N(CC)CC)c2c1C(=O)c1ccccc1C2=O (stereo not drawn)" experimental_result=52%
compound=O=C(CCC1CCCC1)Nc1ccc(NC(=O)CCC2CCCC2)c2c1C(=O)c1ccccc1C2=O experimental_result=101%

q: Which viability at 48 h, 20 µM value belongs to `CCN(CC)CCC(=O)Nc1ccc(NC(=O)CCN(CC)CC)c2c1C(=O)c1ccccc1C2=O` ?
a: 15%

* * *

- System: hepatitis B virus transfected hepatoma cell lines, HepG 2.2.15 cells
- procedure.summary: Cytotoxicity assay, 2.2.15 cells
- Type: cell-based, human
- experimental.conditions: 48 h of drug exposure
measurement.kind: IC50 (µM)
Write the value in µM as a bare number.

compound="N.N.[Cl][Pt][Cl] [Cisplatin, reference compound]" measurement_kind=IC50 experimental_result=2

q: Field request: IC50 | item: O=C1c2cccc(NCCNCCO)c2C(=O)c2cccc(NCCNCCO)c21 [IVe]
a: 8.35

* * *

Reported SEAP/vibility values are given for each entry in this list.
- Tested on: transcriptional activity of hTERT
- procedure.summary: SEAP reporter assay of hTERT expression, PhTERT-SEAP (H1299)
- Assay type: cell-based, human
- experimental.conditions: 20 μM, PhTERT-SEAP(hTERT-H1299)
Lab note: write the figure by itself, no unit.

q: Sample CCN(CC)C(C)C(=O)Nc1ccc(NC(=O)C(C)N(CC)CC)c2c1C(=O)c1ccccc1C2=O (stereo not shown) [VI35] — what was its SEAP/vibility?
a: 1.35

q: For the molecule shown here, CCN(CC)CCC(=O)Nc1ccc(NC(=O)CCN(CC)CC)c2c1C(=O)c1ccccc1C2=O [VI34] , give the reported SEAP/vibility.
a: 4.63

q: Query (molecule): O=C(Nc1ccc(NC(=O)c2ccc(F)cc2)c2c1C(=O)c1ccccc1C2=O)c1ccc(F)cc1 [VI30] ; field requested: SEAP/vibility
a: 1.04

q: GET /values?readout=SEAP/vibility&item= NCC1CC1CCC(=O)Nc1ccc(NC(=O)CCC2CC2CN)c2c1C(=O)c1ccccc1C2=O (stereo not shown) [VI36]
a: 1.76

* * *

IC50 listing for selected compounds.
- Test system: rat glioma C6 cells
- procedure.summary: Cytotoxicity assay (XTT colorimetric), C6 cells
- Format: cell-based
- experimental.conditions: Rattus norvegicus, C6; 48 h of drug exposure

Check out these entries, answers already filled in.
smiles_notation=O=C(Cc1ccc(F)cc1)Nc1ccc(NC(=O)Cc2ccc(F)cc2)c2c1C(=O)c1ccccc1C2=O experimental_result="> 20 µM"
smiles_notation=O=C(CCC1CCCC1)Nc1ccc(NC(=O)CCC2CCCC2)c2c1C(=O)c1ccccc1C2=O experimental_result="> 20 µM"

Let's switch to this compound now.
q: Fill in the blank: the reported IC50 of `CC(=O)Nc1ccc(NC(C)=O)c2c1C(=O)c1ccccc1C2=O` is ____.
a: > 20 µM

Values were extracted from patent US20050009924A1.
